src = patent US20240344241A1

TARGET_SYSTEM: T1, human β-factor XIIa (human), P00748
T1 chain 1: NGPLSCGQR
T1 chain 2: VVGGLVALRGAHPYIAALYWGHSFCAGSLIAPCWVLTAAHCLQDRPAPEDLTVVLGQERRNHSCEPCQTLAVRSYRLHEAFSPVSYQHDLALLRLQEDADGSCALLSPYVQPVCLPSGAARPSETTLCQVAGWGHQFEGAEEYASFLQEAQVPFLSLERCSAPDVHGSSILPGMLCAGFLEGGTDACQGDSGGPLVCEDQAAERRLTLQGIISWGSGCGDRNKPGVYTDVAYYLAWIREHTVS
ASSAY_PROTOCOL: SPR (Biacore T200), biotinylated human β-FXIIa captured on chip, peptide as analyte, 1:1 model
RECORDED_METRIC: Kd
Please format your answer as a value with the unit trailing.

(Q) Consider the binder DGGICPRILVYCRRDSDCPGACICIRRTYCGSGS (modifications not checked) [MCoFx2 acyclic] and give its recorded Kd.
(A) 0.045 µM

(Q) Return value of Kd for input DGGICPRIGRLCRRDSDCPGACICRATRFCGSGY (modifications not checked) [MCoFx1 acyclic] , no commentary.
(A) 0.0019 µM

(Q) State, in one line, measured Kd of DGGVCPKILKKCRRDSDCPGACICRGNGYCGSGS (modifications not checked) [MCoTI-II (Momordica cochinchinensis trypsin inhibitor-II), chemically synthesized, cyclic]
(A) 0.058 µM

(Q) Consider the binder DGGRCPRLLRWCRRDSDCPGACICARGGLCGSGS (modifications not checked) [MCoFx3 acyclic] and give its recorded Kd.
(A) 0.167 µM

(Q) Kindly indicate its recorded Kd. Item: DGGRCCGGYLVCRRDSDCPGACICVFKKHCGSGS (modifications not checked) [MCoFx5 cyclic]
(A) 0.082 µM

(Q) Name the recorded Kd of the binder listed here: DGGVCPRVGWRCRRDSDCPGACICYPTKWCGSGS (modifications not checked) [MCoFx4 acyclic]
(A) 0.074 µM
